Please provide measured viability for the entries that follow.
assay: Her2 expression decrease, cell viability multiplex – SKBR3 breast tumor cells, AlphaScreen, ATP viability, primary screen (AID 461); conditions: SKBR3 Her2 protein level, 18-24 h, measured here: SKBR3 viability, ATP luminescence, at 10 µM;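 note: percent of carrier control wells set as 100% viability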
One number for each entry, in %.

Example cases with answers are listed next.
- Compound: "CC(=O)NCCc1nc2ccccc2[nH]1"
  viability [%]: 94
- Compound: "Cc1cccc(Cn2c(SCC(=O)Nc3ccccc3)nc3c2c(=O)[nH]c(=O)n3C)c1"
  viability [%]: 81.5
- Compound: "CCOC(=O)c1cccc(NC(=O)CNS(=O)(=O)c2cccs2)c1"
  viability [%]: 95.5
- Compound: "Cc1cc(NC(=O)COc2cccc(C)c2C)no1"
  viability [%]: 96
- Compound: "CCN1CCCC1CNC(=O)c1cc2c(=O)n(C)c3ccccc3c2n1C (stereo not drawn)"
  viability [%]: 87

State the recorded viability for every item in the following list.
1. Cc1ccc(-n2c3c(cc(C(=O)NCCCN4CCOCC4)c2=O)C(=O)CC(C)(C)C3)cc1
2. CCC(=O)N1CCN(c2nc(-c3ccccc3)c3c(c2C#N)CCCC3)CC1
3. N#Cc1nc(COc2ccccc2Cl)oc1N1CCCCCC1
4. CC(=O)Nc1cc(N2C(=O)CCC2=O)ccc1Cl
5. COc1ccc(N2CCN(CCCNS(=O)(=O)c3c(C)noc3/C=C/N(C)C)CC2)cc1
6. CC(CC(=O)NC1CCSC1=O)c1ccccc1 (stereo not drawn)
7. CCOC(=O)C1CCN(Cc2ccc(F)c(Br)c2)CC1
8. CCSc1oc(-c2ccco2)nc1S(=O)(=O)c1ccccc1

Response line:
1: 109; 2: 105; 3: 96.5; 4: 93; 5: 99.5; 6: 97; 7: 122; 8: 95

====

test: H69AR cell proliferation blockers – human, duplicate replicates, primary screen (AID 580); details: H69AR lung tumor cells viability, ATP luminescence, 72 h; at 10 µM; stronger effect = lower value;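 note: 100% = mean luminescence of untreated wells and 0% = no signal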
Measurement Kind: viability (%)
One number for each entry, in %.

Example entries and their recorded answers appear below.
- Compound: "Cc1ccnc(NC(=O)C2CCCN(S(=O)(=O)c3cnc[nH]3)C2)c1 (stereo unspecified)"
  Measurement Kind: "viability"
  Recorded Measurement: 105
- Compound: "C(=N\\c1c(-c2ccccc2)nc2n1CCS2)/c1ccccc1"
  Measurement Kind: "viability"
  Recorded Measurement: 100
- Compound: "Cc1ccc2cc(CCNC(=O)C(C)C)c(=O)[nH]c2c1C"
  Measurement Kind: "viability"
  Recorded Measurement: 99
- Compound: "Cc1ccc(C(=O)CC2(O)C(=O)N(C)c3ccc(Br)cc32)c(C)c1 (stereo unspecified)"
  Measurement Kind: "viability"
  Recorded Measurement: 75
- Compound: "COc1cccc(-c2nnc(NC(C)=O)o2)c1"
  Measurement Kind: "viability"
  Recorded Measurement: 98.8

Provide each entry's viability from the list below.
1. CCOc1ccc(C2CC(c3ccccc3C)n3nc(N)nc3N2)cc1 (stereo unspecified)
2. N#CCCN1CCN(S(=O)(=O)c2ccc(S(=O)(=O)NC3CCCC3)cc2)CC1
3. Cc1cc(C)c(NC(=O)CSc2nc3c(c(=O)n2C)SC(C)C3)c(C)c1 (stereo unspecified)
4. COc1ccc(-c2nc(CSCC(=O)N3CCN(c4cccc(C)c4)C(C)C3)c(C)o2)cc1OC (stereo unspecified)

Response line:
[87.9, 107, 90, 85.7]

Please give viability, item by item, for the list that follows.
1. CCn1cc(C(=O)NCCCOC)c(=O)c2cc(S(=O)(=O)N(C)C)ccc21
2. COc1ccc(-n2c(Cc3cccn3C)nnc2SCC(=O)Nc2ccc(Cl)cc2)cc1

Response line:
[87.6, 70.7]
